biological target: amyloid beta (Aβ1–40) (Homo sapiens, UniProt P05067); assay: fluorescence competition with CRANAD-3; also antibody dot blot, MSD, Simoa and ThT aggregation assay
Sequence (P05067 672-711): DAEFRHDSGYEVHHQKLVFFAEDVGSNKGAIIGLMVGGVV
measured-property: Ki
Answer with the figure and its unit, nothing else.

State the recorded Ki for this entry: "Cc1ccc(NC(=O)Nc2cc(C(F)(F)F)ccc2F)cc1Nc1ccc2c(c1)NC(=O)/C2=C\c1ccc[nH]1"
4.16 nM

* * *

target: amyloid beta (Aβ1–40) (Homo sapiens, UniProt P05067); experiment: concentration-dependent 4G8 dot blot (one-site binding fit); ANS fluorescence; FRET; MSD/Simoa; parameters: gene APP; Aβ1–40; fragment Aβ17–24 also tested by ANS; with 4G8 antibody
measured-property: EC50 (nM)
Just the number in nM, nothing appended.

State the recorded EC50 for this entry: "CRANAD-17"
121
